Tested on: IGROV1 ovarian
assay-comment: NCI tumour cell line growth inhibition, 48 h
measurement-label: GI50

- COc1cc2cc(C(=O)Nc3cc(N)c4ccccc4c3CCCl)[nH]c2c(OC)c1OC: 0.0146 µM
- COc1cc2c(Oc3ccc4[nH]c(C)cc4c3F)ccnc2cc1OCC1(N)CC1: 1.16 µM
- COc1ccc(-c2ccc(/C=N/n3c(COc4ccc(Cl)cc4Cl)nn(CN4CCN(C)CC4)c3=S)o2)c([N+](=O)[O-])c1: 45 µM
- O=S(=O)(c1ccc(N=C2NN=C(c3c[nH]c4ccccc34)CS2)cc1)N1CCOCC1: > 100 µM
- CCOc1ccc(Nc2nc(-c3ccc4c(c3)NC(=O)CO4)cs2)cc1: 15.5 µM

Input line: Look up GI50: "NC(=O)c1ccc2c(-c3ccnc(NCCCO)n3)c(-c3ccc(F)cc3)nn2c1"
Output line: 12.9 µM

Input line: Dear colleague, I am looking for the recorded GI50 of the following molecule: "CC1(C)CC(n2cnc(-c3ccc(F)cc3)c2-c2ccnc(N)n2)CC(C)(C)N1"
Output line: 24.7 µM

Input line: Item "COc1ccc2c(CN3CCC[C@H]3C(=O)O)cc3cc4c(cc3c2c1)OCO4" has what recorded GI50?
Output line: 25.4 µM

Input line: Entry C=CCN(CC=C)C(=O)c1cc(C)nc2c1c(=O)n(-c1ccccc1)c(=O)n2CC(O)CN1CCN(c2ncccn2)CC1 (stereo unspecified) : reported GI50 = ?
Output line: > 100 µM

Input line: Tell me the measured GI50 of "O=C(Nc1cc[c]([Sb](=[O])([OH])[OH])cc1)c1ccccc1" , please.
Output line: > 100 µM

Input line: If you can, please state the reported GI50 value of "CCCN1CCN(c2ccc3nc(-c4ccc5nc(-c6cc(OC)ccc6OC)[nH]c5c4)[nH]c3c2)CC1" .
Output line: 13.5 µM

Input line: Using the record for O=CN1N=C(c2ccc(Cl)cc2)CC1c1cccc(Nc2ccnc3cc(Cl)ccc23)c1 (stereo unspecified) , report its GI50.
Output line: 1.44 µM

Input line: Value lookup for GI50; key = "C[C@@H]1N=C(c2ccc(Br)cc2)Nc2nc3ccccn3c2C1=O"
Output line: 51.9 µM

Input line: Given the molecule "NC(=N\N=C/c1cccc([N+](=O)[O-])c1)/C(N)=N\N=C/c1cccc([N+](=O)[O-])c1" , what is its reported GI50?
Output line: > 100 µM

Input line: Name the recorded GI50 for Cc1cc(N2CCCC2)nc(NC2CCCC(Nc3ccnc4cc(Cl)ccc34)C2)n1 (stereo unspecified) .
Output line: 0.967 µM

Input line: Bench note: what GI50 did "COC(=O)c1c2c(c(C)[n+]([O-])c1C)C(=O)C=C(NCc1ccc(OC)cc1)C2=O" show?
Output line: 1.06 µM
